Here the recorded Cellular viability (%) (+) microsome is given for each entry.
# System: Human liver cancer cell line HepG2 cells
# EXPERIMENTAL DETAILS: Cellular viability, WST-8 assay, without or with human liver microsomes
# Assay type: cell-based
# DETAILS: at 135 μM, HepG2, with human liver microsomes
RECORDED ENDPOINT: Cellular viability (%) (+) microsome

>>> readout_value("CNC(=O)c1nc(-c2ccc(C(F)(F)F)cc2)oc1-c1cccc(SC)c1 [Compound 290]")
"60 at %"
>>> readout_value("CCOC(=O)c1nc(-c2ccc(SC)cc2)oc1-c1ccccc1 [Compound 90]")
"74 at %"
>>> readout_value("CCCNC(=O)c1nc(-c2ccc(C(F)(F)F)cc2)oc1-c1cccc(SC)c1 [Compound 292]")
"58 at %"
>>> readout_value("CCOC(=O)c1nc(-c2ccc(C(F)(F)F)cc2)oc1-c1ccccc1 [Compound 31]")
"66 at %"

* * *

# System: Human liver cancer cell line HepG2 cells
# EXPERIMENTAL DETAILS: Cellular viability, WST-8 assay, without or with human liver microsomes
# Format: cell-based
# DETAILS: at 100 μM, HepG2, without human liver microsomes
Here the recorded Cellular viability (%) (−) microsome is given for each entry.
RECORDED ENDPOINT: Cellular viability (%) (−) microsome (at %)

>>> readout_value("CN(C)CCNC(=O)c1nc(-c2ccc(C#N)cc2)oc1-c1ccccc1 [Compound 249]")
43
>>> readout_value("CCOC(=O)c1nc(-c2cccc(Cl)c2)oc1-c1ccccc1 [Compound 75]")
106
>>> readout_value("CCOC(=O)c1nc(-c2ccc(C(F)(F)F)cc2)oc1-c1cccc(C#N)c1 [Compound 55]")
90
>>> readout_value("CCOC(=O)c1nc(-c2ccc(C(F)(F)F)cc2)oc1-c1ccc([N+](=O)[O-])cc1 [Compound 34]")
87
>>> readout_value("CC(=O)N1CCN(CCNC(=O)c2nc(-c3ccc(C(F)(F)F)cc3)oc2-c2ccccc2[N+](=O)[O-])CC1 [Compound 284]")
40
>>> readout_value("CCOC(=O)c1nc(-c2ccc(C(F)(F)F)cc2)oc1-c1ccccc1OC [Compound 44]")
68
>>> readout_value("CSc1ccc(-c2nc(C(=O)NCCN(C)C)c(-c3ccccc3)o2)cc1 [Compound 271]")
45
>>> readout_value("CCOC(=O)c1nc(-c2ccc(C(F)(F)F)cc2)oc1-c1cccc([N+](=O)[O-])c1 [Compound 33]")
73
>>> readout_value("CN(C)CCNC(=O)c1nc(-c2cccc(Cl)c2)oc1-c1ccccc1 [Compound 240]")
45
>>> readout_value("CN(C)CCNC(=O)c1nc(-c2ccc([N+](=O)[O-])cc2)oc1-c1ccccc1[N+](=O)[O-] [Compound 277]")
46
>>> readout_value("CN1CCN(CCNC(=O)c2nc(-c3cc(F)cc(F)c3)oc2-c2ccccc2[N+](=O)[O-])CC1 [Compound 238]")
49
>>> readout_value("COc1ccc(-c2nc(C(=O)NCCN(C)C)c(-c3ccc([N+](=O)[O-])cc3)o2)cc1 [Compound 217]")
19

* * *

# TARGET OR SYSTEM: IL33 and ST2 binding (Homo sapiens, UniProt O95760);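 also: plate ELISA with coated Flag-tagged human IL-33 and His-tagged human ST2, bound ST2 detected by anti-His HRP and TMB absorbance at 450 nm, 2 h compound incubation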
# Sequence (O95760 112-270 limits assumed): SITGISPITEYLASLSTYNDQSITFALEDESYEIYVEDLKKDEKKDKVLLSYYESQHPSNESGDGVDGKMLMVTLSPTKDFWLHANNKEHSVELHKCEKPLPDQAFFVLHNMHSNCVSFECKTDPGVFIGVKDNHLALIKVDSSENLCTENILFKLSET
# DETAILS: 100 µM
Here the recorded inhibition is given for each entry.
RECORDED ENDPOINT: inhibition (%)

>>> readout_value("CCN(CC)CCN1CCN(C(=O)c2nc(-c3ccc(C(F)(F)F)cc3)oc2-c2ccccc2[N+](=O)[O-])CC1 [Compound 154]")
-25
>>> readout_value("O=C(c1nc(-c2ccc(C(F)(F)F)cc2)oc1-c1ccccc1[N+](=O)[O-])N1CCOCC1 [Compound 156]")
41
>>> readout_value("CN1CCN(CCNC(=O)c2nc(-c3ccc(N(C)C)cc3)oc2-c2ccccc2[N+](=O)[O-])CC1 [Compound 264]")
35
>>> readout_value("CN1CCN(CCNC(=O)c2nc(-c3ccc(F)c(F)c3)oc2-c2ccccc2[N+](=O)[O-])CC1 [Compound 234]")
19
